target: human MDR1 (P-gp) (Homo sapiens); construct: expressed in transfected cells; host or cells: MDCKII (Madin-Darby canine kidney); assay: MDCK assay MDR-1 (p-GP) permeability; format: in vitro ADME; conditions: dog, pH 7.4; MDCK-MDR1 monolayers, Papp (b-a)/Papp (a-b)
Sequence (P08183 whole entry): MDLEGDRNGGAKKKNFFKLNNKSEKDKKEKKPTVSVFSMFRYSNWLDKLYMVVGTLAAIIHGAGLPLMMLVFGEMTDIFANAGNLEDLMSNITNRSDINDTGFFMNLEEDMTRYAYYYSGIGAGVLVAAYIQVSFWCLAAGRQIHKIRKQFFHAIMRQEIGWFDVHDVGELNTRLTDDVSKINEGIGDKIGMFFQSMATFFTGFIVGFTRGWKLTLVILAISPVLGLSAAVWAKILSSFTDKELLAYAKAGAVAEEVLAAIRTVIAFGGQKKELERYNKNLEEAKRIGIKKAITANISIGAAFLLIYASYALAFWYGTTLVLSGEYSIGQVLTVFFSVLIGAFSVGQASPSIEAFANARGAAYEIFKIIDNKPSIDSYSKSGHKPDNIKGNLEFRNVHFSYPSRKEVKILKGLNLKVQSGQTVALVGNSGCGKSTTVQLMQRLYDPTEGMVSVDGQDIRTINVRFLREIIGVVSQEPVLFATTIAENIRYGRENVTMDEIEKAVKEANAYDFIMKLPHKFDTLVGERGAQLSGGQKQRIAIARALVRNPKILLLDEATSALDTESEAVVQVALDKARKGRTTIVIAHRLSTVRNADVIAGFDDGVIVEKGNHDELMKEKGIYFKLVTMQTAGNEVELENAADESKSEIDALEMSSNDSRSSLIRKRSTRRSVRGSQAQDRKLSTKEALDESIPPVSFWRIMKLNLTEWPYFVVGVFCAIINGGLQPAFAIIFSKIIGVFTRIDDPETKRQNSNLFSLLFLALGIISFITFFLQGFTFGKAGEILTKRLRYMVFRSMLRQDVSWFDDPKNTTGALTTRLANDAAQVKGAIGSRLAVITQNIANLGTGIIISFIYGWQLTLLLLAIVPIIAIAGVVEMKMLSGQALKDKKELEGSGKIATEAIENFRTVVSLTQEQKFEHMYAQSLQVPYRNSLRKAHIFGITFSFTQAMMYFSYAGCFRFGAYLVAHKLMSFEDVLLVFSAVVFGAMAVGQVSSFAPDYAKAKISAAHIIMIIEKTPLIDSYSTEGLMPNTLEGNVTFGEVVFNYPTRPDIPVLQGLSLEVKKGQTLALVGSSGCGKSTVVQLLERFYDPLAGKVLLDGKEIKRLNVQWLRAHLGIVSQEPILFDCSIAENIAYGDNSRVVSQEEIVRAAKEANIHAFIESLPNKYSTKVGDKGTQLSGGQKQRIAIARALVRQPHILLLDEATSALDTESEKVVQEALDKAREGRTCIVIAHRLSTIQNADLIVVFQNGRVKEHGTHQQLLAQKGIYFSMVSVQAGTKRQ
Readings of efflux ratio at 2 h for the listed compounds
Answer field: number only, no words.

O=C(OCc1ccc(F)cc1F)N1CCO[C@H](c2nc3nccnc3[nH]2)C1	1.4
O=C(OCc1ccccc1F)N1CCO[C@H](c2nc3nccnc3[nH]2)C1	0.8

Query :: What value of efflux ratio at 2 h has been reported for the following compound? Cc1ccc(COC(=O)N2CCO[C@H](c3nc4nccnc4[nH]3)C2)c(F)c1
Result :: 1.6

Query :: Field entry: Cc1cccc(COC(=O)N2CCO[C@H](c3nc4nccnc4[nH]3)C2)c1F
Result :: 0.7

Query :: Field entry: O=C(OCc1ccc(F)cc1)N1CCO[C@H](c2nc3nccnc3[nH]2)C1
Result :: 2.9

Query :: Field entry: Cc1ccc(COC(=O)N2CCO[C@H](c3nc4nccnc4[nH]3)C2)cc1
Result :: 1.8

----------
Target: human MDR1 (P-gp) (Homo sapiens)
Construct: expressed in transfected cells; host or cells: MDCKII (Madin-Darby canine kidney)
Test: MDCK assay MDR-1 (p-GP) permeability
Assay type: in vitro ADME
Settings: dog; MDCK-MDR1 monolayers, apical-to-basal, pH 7.4, 1 or 10 μM
Method: The MDCK assays provide information on the potential of a compound to pass the blood brain barrier. Permeability measurements across polarized, confluent MDCK-MDR1 cell monolayers grown on permeable filter supports are used as an in vitro absorption model: apparent permeability coefficients (PE) of the compounds across the MDCK-MDR1 cell monolayers are measured (pH 7.4, 37° C.) in apical-to-basal (AB) and basal-to-apical (BA) transport direction. […]
Use met when the recorded Papp A→B at 2 h is no lower than 30 ×10⁻⁶ cm/s; use not met when it is lower.

Please review the entries below; each comes with its answer.
Cc1ccc(COC(=O)N2CCO[C@H](c3nc4nccnc4[nH]3)C2)cc1 [Example 12]	met
O=C(OCc1ccc(F)cc1F)N1CCO[C@H](c2nc3nccnc3[nH]2)C1 [Example 5]	met

Query :: Evaluate O=C(OCc1ccc(F)cc1)N1CCO[C@H](c2nc3nccnc3[nH]2)C1 [Example 10] : Papp A→B at 2 h at minimum 30 ×10⁻⁶ cm/s?
Result :: not met

Query :: Field entry: Cc1cccc(COC(=O)N2CCO[C@H](c3nc4nccnc4[nH]3)C2)c1F [Example 3]
Result :: met

Query :: Field entry: Cc1ccc(COC(=O)N2CCO[C@H](c3nc4nccnc4[nH]3)C2)c(F)c1 [Example 1]
Result :: met

Query :: Field entry: O=C(OCc1ccccc1F)N1CCO[C@H](c2nc3nccnc3[nH]2)C1 [Example 4]
Result :: met

----------
molecular target: NMDA NR1/NR2B receptor (Homo sapiens, UniProt Q05586+Q13224); construct: host or cells: HEK293, tetracycline-inducible; test: NMDA NR1/NR2B FLIPR calcium assay in HEK293 cells; type: cell-based; details: HEK293 with tetracyclin-inducible NR1/NR2B; 20 μM glycine/1 μM glutamate; compounds of the invention; read-out: IC50 (in vitro affinity as obtained in the FLIPR assay)
Sequence (Q13224 27-1484, other chains not shown): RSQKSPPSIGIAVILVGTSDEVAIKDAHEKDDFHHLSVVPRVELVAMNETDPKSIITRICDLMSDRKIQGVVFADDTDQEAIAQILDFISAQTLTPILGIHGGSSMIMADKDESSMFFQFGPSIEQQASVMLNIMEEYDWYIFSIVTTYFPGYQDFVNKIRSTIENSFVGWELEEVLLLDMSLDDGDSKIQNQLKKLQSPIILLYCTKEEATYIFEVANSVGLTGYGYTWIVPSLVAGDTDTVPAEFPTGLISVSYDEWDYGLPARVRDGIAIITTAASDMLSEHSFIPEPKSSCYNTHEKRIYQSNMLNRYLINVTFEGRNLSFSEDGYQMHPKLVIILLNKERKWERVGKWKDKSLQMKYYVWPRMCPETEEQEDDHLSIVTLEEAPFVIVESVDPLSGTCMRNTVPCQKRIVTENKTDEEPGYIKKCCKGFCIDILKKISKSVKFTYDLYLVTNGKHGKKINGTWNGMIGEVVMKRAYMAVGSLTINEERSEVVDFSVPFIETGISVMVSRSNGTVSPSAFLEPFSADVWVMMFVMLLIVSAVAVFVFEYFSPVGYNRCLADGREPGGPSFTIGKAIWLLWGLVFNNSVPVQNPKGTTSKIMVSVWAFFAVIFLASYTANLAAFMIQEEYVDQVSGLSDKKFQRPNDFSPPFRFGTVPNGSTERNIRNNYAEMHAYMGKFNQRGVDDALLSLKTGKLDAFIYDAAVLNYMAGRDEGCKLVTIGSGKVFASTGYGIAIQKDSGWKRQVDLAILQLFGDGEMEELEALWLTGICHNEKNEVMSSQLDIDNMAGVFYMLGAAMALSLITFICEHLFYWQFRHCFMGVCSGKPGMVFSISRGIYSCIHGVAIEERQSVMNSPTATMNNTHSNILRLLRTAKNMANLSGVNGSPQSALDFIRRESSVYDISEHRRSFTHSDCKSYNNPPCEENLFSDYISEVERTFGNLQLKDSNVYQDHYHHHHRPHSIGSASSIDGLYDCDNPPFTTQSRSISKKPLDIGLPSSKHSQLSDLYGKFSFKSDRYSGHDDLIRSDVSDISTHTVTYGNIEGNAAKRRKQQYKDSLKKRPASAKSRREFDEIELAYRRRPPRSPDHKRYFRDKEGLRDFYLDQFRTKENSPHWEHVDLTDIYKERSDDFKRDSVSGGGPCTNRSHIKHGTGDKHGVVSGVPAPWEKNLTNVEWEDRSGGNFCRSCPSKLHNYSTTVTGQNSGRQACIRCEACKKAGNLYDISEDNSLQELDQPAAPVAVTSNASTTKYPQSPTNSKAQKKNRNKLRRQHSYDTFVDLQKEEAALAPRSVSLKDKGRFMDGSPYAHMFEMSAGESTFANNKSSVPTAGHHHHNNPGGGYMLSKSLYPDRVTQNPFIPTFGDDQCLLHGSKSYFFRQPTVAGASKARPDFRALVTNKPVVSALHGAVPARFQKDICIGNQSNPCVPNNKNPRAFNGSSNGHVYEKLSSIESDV
# label = label 1 if IC50 < 0.4 µM else label 0

Please review the entries below; each comes with its answer.
Cc1cccc(COC(=O)N2CCO[C@H](c3nc4nccnc4[nH]3)C2)c1F [Example 3]	label 0
O=C(OCc1ccccc1F)N1CCO[C@H](c2nc3nccnc3[nH]2)C1 [Example 4]	label 1
Cc1ccc(COC(=O)N2CCO[C@H](c3nc4nccnc4[nH]3)C2)cc1 [Example 12]	label 1
Cc1ccc(COC(=O)N2CCO[C@H](c3nc4nccnc4[nH]3)C2)c(F)c1 [Example 1]	label 1
O=C(OCc1ccc(F)cc1F)N1CCO[C@H](c2nc3nccnc3[nH]2)C1 [Example 5]	label 0

--- query ---
Query :: Lab log: compare recorded IC50 with 0.4 µM; is it strictly lower for O=C(OCc1ccc(F)cc1)N1CCO[C@H](c2nc3nccnc3[nH]2)C1 [Example 10] ?
Result :: label 0
